molecular target: Hsp16.3 (Mycobacterium tuberculosis); assay: ADH heat aggregation assay for inhibition of Hsp16.3 chaperon activity; type: biochemical
Sequence (P9WMK1 whole entry, looked up): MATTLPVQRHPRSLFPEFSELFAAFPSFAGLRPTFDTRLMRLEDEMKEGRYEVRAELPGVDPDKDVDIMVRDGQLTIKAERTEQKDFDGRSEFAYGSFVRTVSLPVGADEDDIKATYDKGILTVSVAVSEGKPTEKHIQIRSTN
pIC50: −log10 of the molar value.
// values below are reported pIC50

substance	pIC50
H-YPHHFKHRHIPIGGGS-NH2 [Seq ID 22]	~4.30

Pending substance:
Input: Provide one value: measured pIC50 of H-KMHATNHGGGS-NH2 [Seq ID 10]
Output: ~4.30
